- System: binding site 2 of the sodium channel (batrachotoxin (BTX) binding site)
- Test Description: Binding test on the sodium channel, binding site 2 (BTX bond), [3H]-batrachotoxinin A20 α-benzoate as ligand
- Design: species or system rat
- Experimental Context: 10 μM; rat cerebrocortex synaptosomes; ligand 10 nM; 25° C., 120 min
Consider the following molecules; for each one, report its BTX bond, % inhibition [10 μM].
Numbers only, in %.

The recorded BTX bond, % inhibition [10 μM] for entry COc1ccc(C(=O)N2CCC(c3cn(CCC(C)C)c4ccccc34)C2)cc1OC (centres unmarked) equals 93

The recorded BTX bond, % inhibition [10 μM] for entry CCCc1ccc(C(=O)N2CCC(c3cn(Cc4ccc(Br)cc4)c4ccccc34)C2)cc1 (centres unmarked) equals 89

The recorded BTX bond, % inhibition [10 μM] for entry Cc1cc(C)c(S(=O)(=O)N2CCC(c3cn(CC(=O)N(C)C)c4ccccc34)C2)c(C)c1 (centres unmarked) equals 80

The recorded BTX bond, % inhibition [10 μM] for entry N#Cc1ccc(Cn2cc(C3CCN(C(=O)c4ccc5nonc5c4)C3)c3ccccc32)cc1 (centres unmarked) equals 91

The recorded BTX bond, % inhibition [10 μM] for entry COc1cccc(Cn2cc(C3CCN(C(=O)C(C)Oc4ccccc4)C3)c3ccccc32)c1 (centres unmarked) equals 83

For every listed record, write down its BTX bond, % inhibition [10 μM].
1. COc1cccc(Cn2cc(C3CCN(C(=O)Cc4ccc(Cl)cc4)C3)c3ccccc32)c1 (centres unmarked)
2. CCn1cc(C2CCN(C(=O)c3ccc(C(F)(F)F)c(F)c3)C2)c2ccccc21 (centres unmarked)
3. CCn1cc(C2CCN(C(=O)CCc3ccccc3)C2)c2ccccc21 (centres unmarked)

88
84
84
